Tested on: Staphylococcus aureus
Assay: Inhibition of multidrug resistance efflux pump in Staphylococcus aureus ATCC 29213 assessed as potentiation factor measured by reduction in weighted average of ciprofloxacin MIC by serial dilution method
Active and inactive are the calls of the source. The calls are words filed in the database; no cut-off is given here.
measure: logPF

Known results for molecules:
>  <molecule>
CCC(/C=C/C(=O)Nc1ccccc1)=C\c1ccccc1

>  <measure>
logPF

>  <observed value>
2.32

$$$$
>  <molecule>
CCC(CCC(=O)NCC(C)C)Cc1ccc2c(c1)OCO2 (configuration not stated)

>  <measure>
logPF

>  <observed value>
1.85

$$$$
>  <molecule>
CCCC(/C=C/C(=O)O)=C\c1ccc2c(c1)OCO2

>  <measure>
logPF

>  <observed value>
inactive

$$$$
>  <molecule>
CC/C=C/C(=C/c1ccc2c(c1)OCO2)CC

>  <measure>
logPF

>  <observed value>
1.3

$$$$
>  <molecule>
CCOC(=O)/C=C/C(C)=C/c1ccc2c(c1)OCO2

>  <measure>
logPF

>  <observed value>
inactive

$$$$

stdin: Field request: logPF | item: CCC(/C=C/C(=O)O)=C\c1ccc2c(c1)OCO2
stdout: 1

stdin: Field request: logPF | item: CCC(/C=C/C(=O)N1CCCCC1)=C\c1ccc2c(c1)OCO2
stdout: 2.38

stdin: Field request: logPF | item: CCC(/C=C/C(=O)N1CCCCC1)=C\c1ccc(OC)c(OC)c1
stdout: 2.34

stdin: Field request: logPF | item: CCCCCCC(/C=C/C(=O)N1CCCCC1)=C\c1ccc(OC)cc1
stdout: 2.11

stdin: Field request: logPF | item: CCCCC(/C=N/C(CC)CO)=C\c1ccc(OC)cc1 (configuration not stated)
stdout: 2

stdin: Field request: logPF | item: CCC(CCCC(=O)NCC(=O)NCC(=O)OC)Cc1ccc2c(c1)OCO2 (configuration not stated)
stdout: 1.85

stdin: Field request: logPF | item: CC(/C=C/C(=O)N1CCOCC1)=C\c1ccc2c(c1)OCO2
stdout: inactive

* * *

Test system: Staphylococcus aureus
Test: Inhibition of multidrug resistance efflux pump in Staphylococcus aureus ATCC 29213 assessed as potentiation factor measured by reduction in weighted average of ciprofloxacin MIC by serial dilution method
measure: logPF

Known results for compounds:
>  <compound>
CCCC(/C=C/C(=O)N1CCCCC1)=C\c1ccc2c(c1)OCO2

>  <study system>
Staphylococcus aureus

>  <logPF>
2.32

$$$$
>  <compound>
CCCC(/C=C/C(=O)N1CCCCC1)=C\c1ccc(OC)cc1

>  <study system>
Staphylococcus aureus

>  <logPF>
2.32

$$$$
>  <compound>
CCC(/C=C/C(=O)NC(C)C=O)=C\c1ccc2c(c1)OCO2 (stereo unspecified)

>  <study system>
Staphylococcus aureus

>  <logPF>
1.48

$$$$

stdin: Lab request: please report logPF under test system Staphylococcus aureus for CCCCC(/C=C/C(=O)N1CCCCC1)=C\c1ccc2c(c1)OCO2
stdout: 2.3

stdin: Lab request: please report logPF under test system Staphylococcus aureus for CC(/C=C/C(=O)N1CCCC1)=C\c1ccc2c(c1)OCO2 (stereo in doubt; 12)
stdout: 2.11

stdin: Lab request: please report logPF under test system Staphylococcus aureus for CC(/C=C/C(=O)O)=C\c1ccc2c(c1)OCO2
stdout: 1

stdin: Lab request: please report logPF under test system Staphylococcus aureus for C(/C=C/c1ccc2c(c1)OCO2)=C\CN1CCCCC1
stdout: 1.48

stdin: Lab request: please report logPF under test system Staphylococcus aureus for CCCC(/C=C/C(=O)N1CCN(C)CC1)=C\c1ccc2c(c1)OCO2
stdout: 1.78

stdin: Lab request: please report logPF under test system Staphylococcus aureus for CCC(/C=C/C(=O)NCC(C)C)=C\c1ccc2c(c1)OCO2
stdout: 2.43

stdin: Lab request: please report logPF under test system Staphylococcus aureus for CCC(CO)NC(=O)/C=C/C(C)=C/c1ccc2c(c1)OCO2 (stereo unspecified)
stdout: 1.48

Measured values drawn from ChEMBL document CHEMBL1152832 for this set.
